procedure_text: Cell viability of LPS-treated mouse peritoneal macrophages (MTT assay)
Type: cell-based

>  <compound>
CC(=O)O[C@@H]1CC2C(C)(C)C(=O)C=C[C@]2(C)C2CC[C@]3(C)C(=CC(=O)[C@@]3(O)c3ccoc3)[C@@]21C (stereo partly drawn) [compound 9, 17β-hydroxyazadiradione]

>  <viability at 30 µM / %>
94.8

$$$$

###

procedure_text: Cell viability of LPS-treated mouse peritoneal macrophages (MTT assay)
Format: cell-based
details: LPS-treated TGC-induced mouse peritoneal macrophages, 3 µM, mean ± S.E.M. (n = 4), read-out: cell viability (%) in MTT assay (values in parentheses) (converted)
measurement_kind: viability at 3 µM

>  <compound>
CCC(=O)OC1C2(OC(C)=O)C(OC(C)=O)C3(C)CC24OC2(C)OC15C(CC(=O)OC)C1(C)CC(c6occc6C1=O)C5(O2)C41COC(=O)CC31 (centres unmarked) [compound 16, guianolide A]

>  <measurement_kind>
viability at 3 µM

>  <result>
96.9%

$$$$
>  <compound>
CC(=O)O[C@@H]1C2C(C)(C)C(=O)C=C[C@]2(C)C2CC[C@@]3(C)[C@H](c4ccoc4)OC(=O)[C@H]4O[C@]43[C@]2(C)[C@@H]1O (some centres unmarked) [compound 5, andirolide H]

>  <measurement_kind>
viability at 3 µM

>  <result>
99.8%

$$$$
>  <compound>
CCC(=O)OC1C2(O)C(OC(C)=O)C3(C)CC24OC2(C)OC15C1CC(=O)OC(c6ccoc6)C1(C)C(OC(C)=O)CC5(O2)C4(C)C3C(OC(C)=O)C(=O)OC (centres unmarked) [compound 14, Carapanolide Q]

>  <measurement_kind>
viability at 3 µM

>  <result>
99.8%

$$$$
>  <compound>
COC(=O)CC1C(C)C(=O)C2(CC3(O)C4CC(=O)OC(c5ccoc5)C4(C)CCC3(O)O2)C(OC(=O)C(C)C)C1(C)C (centres unmarked) [compound 17, carapanolide A]

>  <measurement_kind>
viability at 3 µM

>  <result>
103%

$$$$
>  <compound>
CCC(C)C(=O)OC1C2(OC(C)=O)CC3(O)C4=CC(=O)OC(c5ccoc5)C4(C)CCC3C(C)(C2=O)C(CC(=O)OC)C1(C)C (centres unmarked) [compound 10, Carapanolide C]

>  <measurement_kind>
viability at 3 µM

>  <result>
96%

$$$$

Cited source: paper PMC4849045
